Answer each item with its documented interaction score.
# assayedTarget: T1, O2-bA
# T1 chain: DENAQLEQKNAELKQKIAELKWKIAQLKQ
# methodSummary: two-hybrid library CCNG1;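 also: natural log of median RNA to DNA barcode read ratio; higher means stronger binding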
Please reply with the number alone, leaving off any unit.

Entry DKIAQLKQKNAELKQEIAELEWKNAQLKQ [O16-bA] — recorded interaction score = -0.141

Entry DENAQLEQKNAELKQKIAELKWKIAQLKQ [O2-bA] — recorded interaction score = -0.405

Entry DKIAQLKQEIAELEQENAELEWENAQLEQ [O11-bA] — recorded interaction score = -0.637

Entry DKNAQLKQENAELEQKIAELKWKIAQLKQ [O10-bA] — recorded interaction score = 1.79

Entry DKNAQLKQENAELEQEIAELEWEIAQLEQ [O1-bA] — recorded interaction score = 2.31

Entry DENAQLEQEIAELEQENAELEWKIAQLKQ [O14-bA] — recorded interaction score = 0.492

Entry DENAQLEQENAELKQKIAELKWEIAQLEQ [4H1257-bA] — recorded interaction score = -1.33
